measured-target: WT PqsE (Pseudomonas aeruginosa)
Sequence (P20581 whole entry): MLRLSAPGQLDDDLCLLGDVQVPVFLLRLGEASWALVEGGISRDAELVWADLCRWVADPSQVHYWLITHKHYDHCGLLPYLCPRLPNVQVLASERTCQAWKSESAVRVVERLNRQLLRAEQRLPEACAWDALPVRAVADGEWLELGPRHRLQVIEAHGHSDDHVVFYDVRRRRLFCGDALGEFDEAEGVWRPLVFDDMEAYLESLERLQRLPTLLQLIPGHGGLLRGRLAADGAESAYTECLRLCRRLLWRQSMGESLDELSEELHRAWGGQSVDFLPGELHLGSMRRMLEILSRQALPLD
protocol-details: biochemical
assay-metric: EC50 (nM)
Note: unit nM is implicit; provide only the numeric part.

Q: # get_value(readout='EC50', item= O=C(Nc1cccc(-c2ccn[nH]2)c1)c1cccc2cn[nH]c12 )
Result: 255
